# experimental target: Btk (Homo sapiens)
# assay procedure: Btk kinase activity, TR-FRET assay
# Assay type: biochemical
# test settings: read-out: Btk (IC50)
# Experimental: Btk kinase activity is determined using a time-resolved fluorescence resonance energy transfer (TR-FRET) methodology. Measurements are performed in a reaction volume of 50 μL using 96-well assay plates. […] The TR-FRET signal is measured on a multimode plate reader with an excitation wavelength (λEx) of 330 nm and detection wavelengths (λEm) of 615 and 665 nm. Activity is determined by the ratio of the fluorescence at 665 nm to that at 615 nm. […]
pIC50: −log10 of the molar value.
observed property: pIC50

molecule: CC(=O)N1CCC[C@@H](Oc2n[nH]c3nccc(Nc4cccc(C(=O)Nc5ccc(C(C)C)c(C)c5)c4)c23)C1 [compound 135]
observed property: pIC50
reported measurement: 6.00 to 7.00

molecule: C=CC(=O)N1CC[C@@H](Nc2n[nH]c3nccc(Oc4ccc(Cl)cc4)c23)C1 [compound 1]
observed property: pIC50
reported measurement: > 7.00

molecule: Cc1cnc(NC(=O)c2ccc(Oc3ccnc4[nH]nc(C5CCCN(C(=O)C6CCN(C)CC6)C5)c34)cc2)s1 (stereo not shown) [compound 217]
observed property: pIC50
reported measurement: 6.00 to 7.00

## Input Fill in: pIC50 of CO[C@H]1CC[C@@H](Nc2n[nH]c3nccc(Oc4ccc(C(=O)Nc5cc(C#N)ccn5)cc4)c23)CC1 [compound 85] is ___
## Output > 7.00

## Input Fill in: pIC50 of CCNC(=O)N1CC[C@@H](Nc2n[nH]c3nccc(Oc4ccc(C(=O)Nc5ncc(C)s5)cc4)c23)C1 [compound 189] is ___
## Output > 7.00

## Input Fill in: pIC50 of Cc1ccnc(NC(=O)c2ccc(Oc3ccnc4[nH]nc(N[C@@H]5CCCN(C(=O)[C@H]6CCOC6)C5)c34)cc2)c1 [compound 116] is ___
## Output > 7.00

## Input Fill in: pIC50 of CCNC(=O)N1CCC[C@@H](Nc2n[nH]c3nccc(Oc4ccc(-c5nc6cccc(C)c6o5)cc4)c23)C1 [compound 182] is ___
## Output 6.00 to 7.00

====

pIC50 values by entry
# experimental target: Btk (Homo sapiens, UniProt Q06187)
# Sequence (Q06187 whole entry): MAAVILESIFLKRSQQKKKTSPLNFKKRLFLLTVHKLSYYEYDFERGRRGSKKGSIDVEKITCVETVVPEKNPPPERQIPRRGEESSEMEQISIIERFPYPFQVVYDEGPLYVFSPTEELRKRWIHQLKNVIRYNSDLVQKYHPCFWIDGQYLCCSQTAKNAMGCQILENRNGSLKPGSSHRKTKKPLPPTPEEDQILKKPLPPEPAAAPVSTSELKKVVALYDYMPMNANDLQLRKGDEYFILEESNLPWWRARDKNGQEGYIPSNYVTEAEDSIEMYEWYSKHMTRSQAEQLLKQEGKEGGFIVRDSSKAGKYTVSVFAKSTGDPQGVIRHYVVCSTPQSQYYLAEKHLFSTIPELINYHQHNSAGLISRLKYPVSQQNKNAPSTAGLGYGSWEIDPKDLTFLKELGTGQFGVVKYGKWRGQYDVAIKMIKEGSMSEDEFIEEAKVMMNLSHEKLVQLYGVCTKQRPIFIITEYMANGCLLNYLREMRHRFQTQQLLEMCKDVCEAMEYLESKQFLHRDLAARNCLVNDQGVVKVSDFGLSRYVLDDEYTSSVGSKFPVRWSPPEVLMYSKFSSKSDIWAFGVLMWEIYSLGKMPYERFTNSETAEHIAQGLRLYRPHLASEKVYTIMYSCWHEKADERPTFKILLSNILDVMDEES
# assay procedure: Btk kinase activity, TR-FRET assay
# Format: biochemical
# test settings: read-out: Btk (IC50)
pIC50: −log10 of the molar value.

line notation: Cc1cc(NC(=O)c2cccc(Nc3ccnc4[nH]nc(N[C@@H]5CCCN(C(=O)c6ccc(F)cc6)C5)c34)c2)ccc1C(C)C
pIC50: 6.00 to 7.00
--
line notation: CCC(=O)N1CC[C@@H](Oc2n[nH]c3nccc(Nc4ccc(C(=O)Nc5cc(C(F)(F)F)ccn5)cc4)c23)C1
pIC50: > 7.00
--
line notation: C=CC(=O)N1CCC[C@@H](Nc2n[nH]c3nccc(Oc4ccc(C(=O)Nc5nc(C)c(C)s5)cc4)c23)C1
pIC50: > 7.00
--
line notation: CN(C/C=C/C(=O)N1CC[C@@H](Nc2n[nH]c3nccc(Oc4ccc(C(=O)Nc5cc(OC6CC6)ccn5)cc4)c23)C1)C1CC1
pIC50: > 7.00
--
line notation: C=CC(=O)N1CC[C@@H](Nc2n[nH]c3nccc(Oc4ccc(C(=O)Nc5cc(C(F)(F)F)ccn5)cc4)c23)C1
pIC50: > 7.00
--
line notation: CN(C/C=C/C(=O)N1CC[C@@H](Nc2n[nH]c3nccc(Oc4ccc(C(=O)Nc5ccccn5)cc4)c23)C1)C1CC1
pIC50: > 7.00
--
line notation: COCC1(C(=O)N2CCC[C@@H](Nc3n[nH]c4nccc(Oc5ccc(C(=O)Nc6cc(C)ccn6)cc5)c34)C2)CCC1
pIC50: > 7.00
--
line notation: Cc1ccnc(NC(=O)c2ccc(Oc3ccnc4[nH]nc(N[C@@H]5CCCN(S(C)(=O)=O)C5)c34)cc2)c1
pIC50: > 7.00

## Input Fill in: pIC50 of `O=C(c1cccc(Oc2ccnc3[nH]nc(N[C@@H]4CCCNC4)c23)c1)N1CCCCC1` is ___
## Output 6.00 to 7.00

## Input Fill in: pIC50 of `Cc1ccnc(NC(=O)c2ccc(Oc3ccnc4[nH]nc(N[C@@H]5CCN(C#N)C5)c34)cc2)c1` is ___
## Output > 7.00

## Input Fill in: pIC50 of `CN(C)CCCC(=O)N1CCC[C@@H](Nc2n[nH]c3nccc(Oc4ccc(C(=O)Nc5nc6ccccc6s5)cc4)c23)C1` is ___
## Output > 7.00

## Input Fill in: pIC50 of `CN(C/C=C/C(=O)N1CC[C@@H](Nc2n[nH]c3nccc(Oc4ccc(C(=O)Nc5cc(C(F)(F)F)ccn5)cc4)c23)C1)C1CC1` is ___
## Output > 7.00

## Input Fill in: pIC50 of `Cc1cnc(NC(=O)c2ccc(Oc3ccnc4[nH]nc(N[C@@H]5CCCN(C(=O)/C=C/CN(C)C6CC6)C5)c34)cc2)s1` is ___
## Output > 7.00

====

# experimental target: Lck (Homo sapiens, UniProt P06239)
# Sequence (P06239 whole entry, species assumed): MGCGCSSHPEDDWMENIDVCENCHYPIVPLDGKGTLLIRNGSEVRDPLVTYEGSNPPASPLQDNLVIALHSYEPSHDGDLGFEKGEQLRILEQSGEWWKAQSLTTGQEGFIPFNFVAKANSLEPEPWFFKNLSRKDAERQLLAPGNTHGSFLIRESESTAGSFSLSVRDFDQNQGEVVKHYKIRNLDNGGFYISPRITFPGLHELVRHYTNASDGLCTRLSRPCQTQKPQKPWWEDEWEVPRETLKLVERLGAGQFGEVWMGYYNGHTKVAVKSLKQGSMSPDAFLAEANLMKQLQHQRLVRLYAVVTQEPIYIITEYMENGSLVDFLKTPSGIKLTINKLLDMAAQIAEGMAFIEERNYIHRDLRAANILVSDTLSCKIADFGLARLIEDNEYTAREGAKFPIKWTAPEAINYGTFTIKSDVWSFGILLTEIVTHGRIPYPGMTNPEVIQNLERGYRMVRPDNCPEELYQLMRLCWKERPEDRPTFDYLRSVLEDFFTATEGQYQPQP
# assay procedure: Lck kinase activity, TR-FRET assay
# Format: biochemical
# test settings: read-out: LCK (IC50)
# Description: Btk kinase activity is determined using a time-resolved fluorescence resonance energy transfer (TR-FRET) methodology. Measurements are performed in a reaction volume of 50 μL using 96-well assay plates. […] The TR-FRET signal is measured on a multimode plate reader with an excitation wavelength (λEx) of 330 nm and detection wavelengths (λEm) of 615 and 665 nm. Activity is determined by the ratio of the fluorescence at 665 nm to that at 615 nm. […]
IC50 values by entry

## Input Fill in: IC50 of CN(C/C=C/C(=O)N1CC[C@@H](Nc2n[nH]c3ncnc(Oc4ccc(Oc5ccccc5)cc4)c23)C1)C1CC1 [compound 48] is ___
## Output 1 to 10 µM

## Input Fill in: IC50 of CCOC(=O)N1CCC[C@@H](Nc2n[nH]c3nccc(Oc4ccc(C(=O)Nc5cc(C#N)ccn5)cc4)c23)C1 [compound 78] is ___
## Output 0.1 to 1 µM

## Input Fill in: IC50 of CCNC(=O)N1CCCC(c2n[nH]c3nccc(Oc4ccc(C(=O)Nc5ncc(C)s5)cc4)c23)C1 (stereo not shown) [compound 195] is ___
## Output 1 to 10 µM

====

# experimental target: Btk (Homo sapiens)
# assay procedure: Btk kinase activity, TR-FRET assay
# Type: biochemical
# test settings: read-out: Btk (IC50)
pIC50: −log10 of the molar value.
pIC50 values by entry

# annotated cases, reported pIC50 shown
line notation: CN(C/C=C/C(=O)N1CC[C@@H](Oc2n[nH]c3nccc(Oc4ccc(Oc5ccccc5)cc4)c23)C1)C1CC1
pIC50: > 7.00
//
line notation: c1ccc(Oc2ccc(Oc3ccnc4[nH]nc(NC[C@@H]5CCCNC5)c34)cc2)cc1
pIC50: 6.00 to 7.00
//
line notation: N#C/C(=C\C1CC1)C(=O)N1CC[C@@H](Nc2n[nH]c3nccc(Oc4ccc(Oc5ccccc5)cc4)c23)C1
pIC50: > 7.00
//
line notation: C=CC(=O)N1CCC[C@@H](Nc2n[nH]c3nccc(Oc4ccc(Oc5ccccc5)c(C)c4)c23)C1
pIC50: > 7.00

## Input Fill in: pIC50 of `C=CC(=O)N1CC[C@@H](Nc2n[nH]c3nccc(Oc4cccc(C(=O)Nc5ccc(C(C)C)c(C)c5)c4)c23)C1` is ___
## Output > 7.00

## Input Fill in: pIC50 of `CCNC(=O)N1CCC[C@@H](Nc2n[nH]c3nccc(Oc4ccc(C(=O)Nc5nc6ccccc6s5)cc4)c23)C1` is ___
## Output > 7.00

## Input Fill in: pIC50 of `CCNC(=O)N1CC[C@@H](Nc2n[nH]c3nccc(Oc4ccc(C(=O)Nc5cc(C(F)(F)F)ccn5)cc4)c23)C1` is ___
## Output > 7.00

## Input Fill in: pIC50 of `Cc1ccnc(NC(=O)c2ccc(Oc3ccnc4[nH]nc(N[C@@H]5CCCN(C(=O)C(C)(C)C#N)C5)c34)cc2)c1` is ___
## Output > 7.00

## Input Fill in: pIC50 of `CN(C)C/C=C/C(=O)N1CC[C@@H](Nc2n[nH]c3nccc(Oc4ccc(Oc5ccccc5)cc4C#N)c23)C1` is ___
## Output > 7.00

## Input Fill in: pIC50 of `Cc1cc(NC(=O)c2cccc(Oc3ccnc4[nH]nc(N[C@@H]5CCCNC5)c34)c2)ccc1C(C)C` is ___
## Output 6.00 to 7.00

## Input Fill in: pIC50 of `C=CC(=O)N1CCC(CNc2n[nH]c3nccc(Oc4ccc(Oc5ccccc5)cc4)c23)CC1` is ___
## Output > 7.00

## Input Fill in: pIC50 of `CC#CC(=O)N1CCC[C@@H](Nc2n[nH]c3nccc(Oc4ccc(C(=O)N(C)c5ncc(C)s5)cc4)c23)C1` is ___
## Output 6.00 to 7.00

## Input Fill in: pIC50 of `CN(C)C/C=C/C(=O)N1CC[C@@H](Nc2n[nH]c3nccc(Oc4ccc(Oc5ccccc5)cc4S(N)(=O)=O)c23)C1` is ___
## Output 6.00 to 7.00

## Input Fill in: pIC50 of `c1ccc(Oc2ccc(Oc3ccnc4[nH]nc(NCC5CCNCC5)c34)cc2)cc1` is ___
## Output 6.00 to 7.00
